Cited source: ChEMBL document CHEMBL1156693

- Test system: Mus musculus
- assay_details: Clastogenic effect on C57BL mouse assessed as number of metaphase chromosome telomere/telomeric fusion in bone marrow cells at 10 mg/kg, ip after 48 hrs
- Type: functional
- experimental_context: route intraperitoneal
measurement_label: Activity

structure_notation=COP(=O)(CNC1(C(=O)O)CCCCCCCCCCC1)OC measurement_label=Activity val=0
structure_notation=COP(=O)(CNC1(C(=O)O)CCCCCCC1)OC measurement_label=Activity val=0
structure_notation=COP(=O)(CNC1(C(=O)O)CCCC1)OC measurement_label=Activity val=1
structure_notation=COP(=O)(CNC1(C(=O)O)CCCCC1)OC measurement_label=Activity val=0
structure_notation=COP(=O)(CNC1(C(=O)O)CCCCCC1)OC measurement_label=Activity val=0
